biological target: G-protein coupled receptor 55 (Homo sapiens); test: Agonist activity at beta-galactosidase enzyme fragment-fused GPR55 (unknown origin) expressed in CHOK1 cells assessed as increase in N-terminal deletion beta-galactosidase mutant-tagged beta arrestin recruitment measured for 1 sec by chemiluminescence based pathhunter assay; format: functional, cell-based
Sequence (Q9Y2T6 whole entry, looked up, stated change not applied, the tested form may be a part): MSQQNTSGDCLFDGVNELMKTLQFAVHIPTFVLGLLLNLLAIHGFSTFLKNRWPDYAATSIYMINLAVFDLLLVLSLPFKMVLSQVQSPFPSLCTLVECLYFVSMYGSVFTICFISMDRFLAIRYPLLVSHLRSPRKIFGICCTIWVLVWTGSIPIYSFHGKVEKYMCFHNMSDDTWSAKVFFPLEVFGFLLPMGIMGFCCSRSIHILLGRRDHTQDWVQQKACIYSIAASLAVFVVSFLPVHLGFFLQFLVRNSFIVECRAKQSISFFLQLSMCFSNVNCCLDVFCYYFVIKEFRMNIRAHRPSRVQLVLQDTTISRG
Kindly state log10 EC50 for each of the entries shown.
In plain terms, each number is the log10 of measured EC50 in nM.

As a guide, the following entries are already answered.
COc1ccccc1/C=C/C(=O)NC(=S)Nc1ccc(S(=O)(=O)Nc2ccccc2)cc1 = 2.78
CN(c1ccccc1)S(=O)(=O)c1ccc(NC(=S)NC(=O)c2ccc3cc(CO)ccc3c2)cc1 = 3.60
COc1ccccc1/C=C/C(=O)NC(=S)Nc1ccc(S(=O)(=O)N(Cc2ccccc2O)c2ccccc2)cc1 = 3.30
COc1ccccc1/C=C/C(=O)NC(=S)Nc1ccc(S(=O)(=O)N(C)c2ccncc2)cc1 = 2.70

Can you give me log10 EC50 for all of these, one by one?
1. COc1ccccc1/C=C/C(=O)NC(=S)Nc1ccc(S(=O)(=O)N(Cc2cccc(O)c2)c2ccccc2)cc1
2. O=C(NC(=S)Nc1ccc(S(=O)(=O)N(CCO)c2ccccc2)cc1)c1ccc2cccnc2c1
3. COc1ccccc1/C=C/C(=O)NC(=S)Nc1ccc(S(=O)(=O)N(CCO)c2ccccc2)cc1

Output:
1: 3.30; 2: 2.30; 3: 2.85
